The measured values listed here are drawn from paper PMC5616077.

- Procedure Summary: MTT assay
- Format: cell-based, human
- Measurement Parameters: human, HaCaT wild-type (WT) cells
Property Name: viability at 48 h, 20 µM

### Prompt Quick check: viability at 48 h, 20 µM of c1ccc2c(c1)cc1ccc3cccc4ccc2c1c34 [BAP, benzo[a]pyrene] ?
### Response ~80%

* * *

- Procedure Summary: MTT assay
- Assay type: cell-based, human
- Measurement Parameters: human, HaCaT AHR knockdown (AHR-KD) cells
Property Name: EC50 at 48 h

### Prompt Endpoint output: EC50 at 48 h of c1ccc2c(c1)ccc1c3ccccc3ccc21 [CRY, chrysene] . Value?
### Response 2000 nM
